# method notes: qHTS of pediatric cancer cell lines to identify multiple opportunities for drug repurposing: Confirmatory screen for Rh41 cells (AID 1347123);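 also: 48 h compound exposure; nearly all actives have a fitted effect of over 60% in size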; also: potency is read from the fitted curve at half-maximal effect
# protocol conditions: Rh41 rhabdomyosarcoma cells, viability/cytotoxicity qHTS; series mostly up to 45.9 µM
Records with an inconclusive call do not appear. The source made the active and inactive calls. Calls follow the shape of the dose curve; as a rule, active = well fitted cell-killing curve with a large enough effect; inconclusive = small, poorly fitted or top-dose-only effect; inactive = no such curve, though single readings can be large or run the other way.
measured attribute: Potency

1) Cc1nc(N)nc(N)c1-c1ccc(Cl)c(Cl)c1	inactive
2) CC(C)=CCC/C(C)=C/CC/C(C)=C/C(=O)OCC(=O)[C@@]1(O)CC[C@H]2[C@@H]3CCC4=CC(=O)C=C[C@]4(C)[C@H]3[C@@H](O)C[C@@]21C	16.5 µM (active)
3) Cc1cc(OCCOCC[N+](C)(C)Cc2ccccc2)ccc1C(C)(C)CC(C)(C)C	7.37 µM (active)
4) CCN(CC)CC(=O)OCC(=O)[C@@]1(O)CC[C@H]2[C@@H]3CCC4=CC(=O)CC[C@]4(C)[C@H]3[C@@H](O)C[C@@]21C	inactive

Next item in the queue.
Kindly note the recorded Potency for CCCCC(=O)OCC(=O)[C@H]1[C@H](C)C[C@H]2[C@@H]3C[C@H](F)C4=CC(=O)C=C[C@]4(C)[C@@]3(F)[C@@H](O)C[C@@]21C , which is 29.3 µM (active)

====

Each entry below carries its recorded max response.
# method notes: qHTS assay for small molecule antagonists of peroxisome proliferator-activated receptor delta signaling (AID 588535);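 also: cells co-treated with a PPAR-delta agonist as stimulator during compound exposure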
# protocol conditions: HEK293T PPARd-UAS-bla, beta-lactamase FRET ratio, 18 h; 460 nm channel
Results filed as inconclusive are left out.
All answers are understood in %, so give the number only.

Guide cases for max response, answers given:
1) Cc1ncc(CO)c(CO)c1O	15.2
2) Cc1ccc(O)cc1	-30.2
3) CN1C(=O)c2ccccc2C1=O	-32.8

# evaluate next
Entry O=C(Oc1ccccc1)c1cccc(C(=O)Oc2ccccc2)c1 ; max response = 22.4

====

# test system: Protein phosphatase 1D (Homo sapiens) (UniProt O15297)
# Sequence (O15297 whole entry, looked up): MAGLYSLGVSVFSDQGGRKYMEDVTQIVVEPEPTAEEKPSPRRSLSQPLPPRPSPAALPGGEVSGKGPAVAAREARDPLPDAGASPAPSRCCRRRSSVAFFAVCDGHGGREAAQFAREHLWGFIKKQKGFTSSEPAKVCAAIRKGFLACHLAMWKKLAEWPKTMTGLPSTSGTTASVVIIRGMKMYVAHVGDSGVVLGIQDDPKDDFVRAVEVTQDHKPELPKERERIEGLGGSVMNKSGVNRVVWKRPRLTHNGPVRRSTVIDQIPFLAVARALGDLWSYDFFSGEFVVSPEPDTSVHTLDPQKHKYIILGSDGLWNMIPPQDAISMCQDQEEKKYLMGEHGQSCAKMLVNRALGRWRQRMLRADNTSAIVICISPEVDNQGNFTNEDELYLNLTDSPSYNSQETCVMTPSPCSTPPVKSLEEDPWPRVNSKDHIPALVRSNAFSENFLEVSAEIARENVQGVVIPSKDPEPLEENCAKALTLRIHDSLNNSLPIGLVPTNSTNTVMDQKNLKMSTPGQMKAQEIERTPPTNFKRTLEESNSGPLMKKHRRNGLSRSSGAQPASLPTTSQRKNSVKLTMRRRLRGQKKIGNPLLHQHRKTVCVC
# method notes: RapidFire Mass Spectrometry qHTS Assay for Modulators of WT P53-Induced Phosphatase 1 (WIP1) (AID 1347424);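 also: amount of dephosphorylated VEPPL-S-QETFS peptide product formed by WIP1; plate controls were DMSO wells for no effect and GSK830371 inhibitor control at 10 µM for full effect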
# protocol conditions: WIP1 dephosphorylation of phosphopeptide, RapidFire MS; series mostly up to 63 µM
Inconclusive results are not listed. Active and inactive are the calls of the source. Calls follow the shape of the dose curve; as a rule, active = well fitted inhibition curve with a large enough effect; inconclusive = small, poorly fitted or top-dose-only effect; inactive = no such curve, though single readings can be large or run the other way.
measured attribute: activity change, negative = inhibition

Consider the worked cases shown below.
1) COC(=O)/C=C(/C)N	inactive
2) CCCCN(CCCC)C(C(N)=O)c1ccc(OC)cc1 (configuration not stated)	inactive
3) C[N+]1(C)CCC(OC(=O)C(O)(c2ccccc2)C2CCCC2)C1 (configuration not stated)	inactive
4) CNC(=O)c1c(I)c(NC(C)=O)c(I)c(C(=O)O)c1I	inactive
5) C[C@H](CN1CCCC1)C(=O)c1ccc(C(F)(F)F)cc1	inactive

Lab note: measured activity change, negative = inhibition of CC(=O)Oc1ccc(C2(c3ccc(OC(C)=O)cc3)Oc3ccccc3NC2=O)cc1 was inactive

// field: activity change, negative = inhibition; key: COC(=O)CCCCC(CCSS/C(CCO)=C(\C)N(C=O)Cc1cnc(C)nc1N)SC(C)=O (configuration not stated) ; value = inactive

The reported activity change, negative = inhibition of the molecule CCC(CN)=C(c1ccccc1)c1ccccc1 was inactive

Reported activity change, negative = inhibition ( CCOC(=O)[C@H](CCc1ccccc1)N[C@@H](C)C(=O)N(CC(=O)O)C1Cc2ccccc2C1 ) = inactive

activity change, negative = inhibition reading for CC(C)C(=O)OCc1cccc(OC(=O)[C@@H]2N3C(=O)[C@@H](NC(=O)Cc4ccccc4)[C@H]3SC2(C)C)c1 : inactive

The reported activity change, negative = inhibition of the molecule Nc1cc(C(F)(F)F)ccc1S was inactive

Briefly, activity change, negative = inhibition measured for CNC(=O)c1cnn(-c2nc(N)c3ncn([C@@H]4O[C@H](CO)[C@@H](O)[C@H]4O)c3n2)c1 : inactive

activity change, negative = inhibition reported for this molecule O=C1NCCN1CCN1CCC(c2cn(-c3ccc(F)cc3)c3ccc(Cl)cc23)CC1 : inactive

Recorded activity change, negative = inhibition (molecule CC(=O)c1ccc(O)c(C(N)=O)c1 ): inactive

// recorded activity change, negative = inhibition for O=C(O)c1ccc(OCCN2CCCCC2)cc1 : inactive

Record summary for CC(=O)OC/C=C(C)/C=C/C=C(C)/C=C/C1=C(C)CCCC1(C)C : reported activity change, negative = inhibition = inactive

Notebook: COC(=O)C1=C(C)NC(C)=C(C(=O)OCCc2ccc(N3CCN(C(c4ccccc4)c4ccccc4)CC3)cc2)C1c1cccc([N+](=O)[O-])c1 (configuration not stated) , activity change, negative = inhibition read as inactive

The reported activity change, negative = inhibition of the molecule CN1CCC(N(Cc2cccs2)c2ccccc2)CC1 was inactive

Form: molecule = NCC(=O)O ; activity change, negative = inhibition = inactive

Quick note, activity change, negative = inhibition for COc1ccccc1OCC1CNC(=O)O1 (configuration not stated) landed at inactive

Given item CSCC[C@H](NC(=O)[C@H](Cc1c[nH]c2ccccc12)NC(=O)CCNC(=O)OC(C)(C)C)C(=O)N[C@@H](CC(=O)O)C(=O)N[C@@H](Cc1ccccc1)C(N)=O , the value recorded as its activity change, negative = inhibition is inactive

# molecule COc1c(C)c2c(c(O)c1C/C=C(\C)CCC(=O)OCCN1CCOCC1)C(=O)OC2 ; its activity change, negative = inhibition = inactive

====

# method notes: Primary qHTS for inhibitors of La Crosse Virus (LACV) - induced cell death in SH-SY5Y cells (AID 1508616);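 also: top concentration of the series differs between compounds; 0% = infected DMSO wells and 100% = uninfected DMSO wells; higher means more rescue of cells from virus-induced death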
# protocol conditions: SH-SY5Y LACV cytopathicity rescue, ATP luminescence, 6 d; series mostly up to 4.29 µM
Records with an inconclusive call do not appear. Calls of active or inactive are those of the source. Calls come from the whole dose curve; as a rule, active = well fitted inhibition curve with a large enough effect; inconclusive = small, poorly fitted or top-dose-only effect; inactive = no such curve, though single readings can be large or run the other way.
measured attribute: activity change

The following compounds have reported results that may help.
1. Cc1ccc(CCn2c3c(c4cc(Cl)ccc42)CN(C)CC3)cn1	inactive
2. COC(=O)c1cc(S(N)(=O)=O)ccc1OC	inactive
3. NCC[C@H](O)C(=O)N[C@@H]1C[C@H](N)[C@@H](O[C@H]2O[C@H](CN)[C@@H](O)[C@H](O)[C@@H]2O)[C@H](O)[C@@H]1O[C@H]1O[C@H](CO)[C@@H](O)[C@H](N)[C@@H]1O	4.33% [at 0.0343 µM] (inactive)
4. O=C1NC(=O)/C(=C/c2ccc3c(c2)OC(F)(F)O3)S1	inactive
5. O=C1CC2(CCCC2)CC(=O)N1	inactive

Cc1nc([N+](=O)[O-])cn1-c1ccc([N+](=O)[O-])cc1 has a reported activity change of inactive

activity change measured on CCC(C(=O)OCCN1CCOC(c2ccccc2)C1C)c1ccccc1 (stereo not given) = inactive

activity change measured on CO/N=C(/C(=O)N[C@@H]1C(=O)N2C(C(=O)OCOC(=O)C(C)(C)C)=C(C)CS[C@H]12)c1csc(N)n1 = inactive

Please fill in: activity change reported for OC1(c2ccc(Cl)cc2)CCNCC1 = inactive

compound O=C1CC[C@H](C(=O)N2CCCCC2)N1 , activity change observed: inactive

====

# test system: Ubiquitin carboxyl-terminal hydrolase 1 (Homo sapiens) (UniProt O94782)
# Sequence (O94782 whole entry, looked up): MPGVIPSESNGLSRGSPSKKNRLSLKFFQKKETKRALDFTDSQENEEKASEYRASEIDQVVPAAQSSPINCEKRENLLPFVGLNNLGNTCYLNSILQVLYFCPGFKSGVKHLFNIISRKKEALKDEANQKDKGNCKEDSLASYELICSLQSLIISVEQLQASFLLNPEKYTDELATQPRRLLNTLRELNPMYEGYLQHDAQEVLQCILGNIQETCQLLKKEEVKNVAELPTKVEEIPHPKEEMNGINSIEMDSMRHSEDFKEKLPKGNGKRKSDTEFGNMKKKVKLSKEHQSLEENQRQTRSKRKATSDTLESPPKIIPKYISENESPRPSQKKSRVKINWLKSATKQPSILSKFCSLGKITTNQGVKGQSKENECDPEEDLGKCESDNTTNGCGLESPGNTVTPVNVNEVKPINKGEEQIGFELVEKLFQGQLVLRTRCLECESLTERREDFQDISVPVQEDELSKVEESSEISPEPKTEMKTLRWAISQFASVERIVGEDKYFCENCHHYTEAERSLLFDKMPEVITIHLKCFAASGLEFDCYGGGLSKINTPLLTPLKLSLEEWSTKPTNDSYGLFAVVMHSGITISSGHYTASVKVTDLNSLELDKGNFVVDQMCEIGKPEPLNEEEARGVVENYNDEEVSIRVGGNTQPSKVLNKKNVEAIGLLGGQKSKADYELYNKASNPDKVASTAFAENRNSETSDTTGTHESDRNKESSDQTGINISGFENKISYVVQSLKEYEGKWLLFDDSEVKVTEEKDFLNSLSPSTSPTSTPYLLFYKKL
# method notes: Inhibitors of USP1/UAF1: Pilot qHTS (AID 504865); also: nearly all actives have a fitted effect of over 35% in size
# protocol conditions: purified USP1/UAF1, Ub-rhodamine cleavage fluorescence; series mostly up to 114 µM
Results filed as inconclusive are left out. Active and inactive are the calls of the source. The call rests on the fitted dose curve; in most records, active means well fitted inhibition curve with a large enough effect; inconclusive means small, poorly fitted or top-dose-only effect; inactive means flat fitted curve, though single readings scatter.
Choose one outcome from this list and give only that: true for active, false for inactive

Some solved cases for reference:
1) Cc1ncc(CO)c(CO)c1O	false
2) CN1CCC(Nc2ncc3ncnc(Nc4ccc(F)c(Cl)c4)c3n2)CC1	false
3) Cn1cnc2c(NCc3ccccc3)nc(NCCO)nc21	false
4) N[C@@H](Cn1ccc(=O)c(O)c1)C(=O)O	false
5) CCCCCCCCCCCCCC[N+](C)(C)C	true

Ask: Test call, this compound: O=C1NC(c2cccc([N+](=O)[O-])c2)=CCN1c1ccccc1O
Reply: false

Ask: Outcome? Cc1ccc2c(Cl)cc(Cl)c(O)c2n1
Reply: false

====

# method notes: qHTS of pediatric cancer cell lines to identify multiple opportunities for drug repurposing: Primary screen for Saos-2 cells (AID 1347097); also: nearly all actives have a fitted effect of over 40% in size
# protocol conditions: Saos-2 viability, CellTiter-Glo ATP luminescence, 48 h; series mostly up to 46 µM
Records with an inconclusive call do not appear. Calls of active or inactive are those of the source. Calls follow the shape of the dose curve; as a rule, active = well fitted cell-killing curve with a large enough effect; inconclusive = small, poorly fitted or top-dose-only effect; inactive = no such curve, though single readings can be large or run the other way.
Hi there, use one of these labels in your reply, thanks! active, inactive

The following compounds have reported results that may help.
1) CCCCCC[C@@H](CCC)C(=O)O	inactive
2) CCCCCC1Nc2cc(C(F)(F)F)c(S(N)(=O)=O)cc2S(=O)(=O)N1 (stereo unspecified)	inactive
3) CN1CCC(N(Cc2cccs2)c2ccccc2)CC1	active

Ask: Per the assay record, what outcome was assigned to O=C1CC2(CCCC2)CC(=O)N1CCNCC1COc2ccccc2O1 (stereo unspecified) ?
Reply: inactive

Ask: // param item: CCN1CCN(C(=O)N[C@@H](C(=O)N[C@@H]2C(=O)N3[C@@H]2SC(C)(C)[C@H]3C(=O)O)c2ccccc2)C(=O)C1=O ; yields the recorded call
Reply: inactive

Ask: What call does the record list for CN=C(N)NC(=O)Nc1c(C)cccc1C ?
Reply: inactive

Source: PubChem BioAssay (NCATS)
